test: Cmax in dog at 10 mg/kg, po; type: ADME, organism-based, Canis lupus familiaris; parameters: dose 10 mg/kg, route oral; details: in vivo

line notation: COc1cccc(CNC(=O)c2nc3ccc(F)c(OCCc4ccc(C(=O)[O-])cc4)c3c(=O)[nH]2)c1.[Na+]
Cmax / ng/mL: 3870

====

experiment: Total clearance in dog at 1 mg/kg, iv; type: ADME, organism-based, Canis lupus familiaris; parameters: dose 1 mg/kg, route intravenous; details: in vivo

line notation: COc1cccc(CNC(=O)c2nc3ccc(F)c(OCCc4ccc(C(=O)[O-])cc4)c3c(=O)[nH]2)c1.[Na+]
clearance, mL/min/kg: 3.08

====

test: Total clearance in rabbit at 0.1 mg/kg, iv; details: in vivo
observation type: clearance (mL/min/kg)

line notation: COc1cccc(CNC(=O)c2nc3ccc(F)c(OCCc4ccc(C(=O)[O-])cc4)c3c(=O)[nH]2)c1.[Na+]
observation type: clearance
measured: 3.7

====

test: Solubility of the compound in Britton-Robinson buffer at pH 7; format: physicochemical

line notation: COc1cccc(CNC(=O)c2nc3ccc(F)c(OCCc4ccc(C(=O)O)cc4)c3c(=O)[nH]2)c1
solubility: 0.7 µg/mL

====

test: Volume of distribution at steady state in rat at 1 mg/kg, iv; format: ADME, organism-based; set-up: dose 1 mg/kg, route intravenous; conditions: in vivo, read-out: Vdss

line notation: COc1cccc(CNC(=O)c2nc3ccc(F)c(OCCc4ccc(C(=O)[O-])cc4)c3c(=O)[nH]2)c1.[Na+]
unit tag: L/kg
Vd: 0.995

====

assay: AUC in rabbit at 10 mg/kg, po; assay type: ADME, organism-based, Oryctolagus cuniculus; set-up: dose 10 mg/kg, route oral; conditions: plasma

line notation: COc1cccc(CNC(=O)c2nc3ccc(F)c(OCCc4ccc(C(=O)[O-])cc4)c3c(=O)[nH]2)c1.[Na+]
unit tag: ng·h/mL
AUC: 15700

====

target: Disintegrin and metalloproteinase domain-containing protein 17 (Homo sapiens); assay: Inhibition of human recombinant TACE using Cy3-PLAQAV(Cy5Q-L-2,3-diaminopropionic acid)-RSSSRNH2 as substrate after 40 mins by spectrofluorimetry
Sequence (P78536 whole entry, the tested form may be a part): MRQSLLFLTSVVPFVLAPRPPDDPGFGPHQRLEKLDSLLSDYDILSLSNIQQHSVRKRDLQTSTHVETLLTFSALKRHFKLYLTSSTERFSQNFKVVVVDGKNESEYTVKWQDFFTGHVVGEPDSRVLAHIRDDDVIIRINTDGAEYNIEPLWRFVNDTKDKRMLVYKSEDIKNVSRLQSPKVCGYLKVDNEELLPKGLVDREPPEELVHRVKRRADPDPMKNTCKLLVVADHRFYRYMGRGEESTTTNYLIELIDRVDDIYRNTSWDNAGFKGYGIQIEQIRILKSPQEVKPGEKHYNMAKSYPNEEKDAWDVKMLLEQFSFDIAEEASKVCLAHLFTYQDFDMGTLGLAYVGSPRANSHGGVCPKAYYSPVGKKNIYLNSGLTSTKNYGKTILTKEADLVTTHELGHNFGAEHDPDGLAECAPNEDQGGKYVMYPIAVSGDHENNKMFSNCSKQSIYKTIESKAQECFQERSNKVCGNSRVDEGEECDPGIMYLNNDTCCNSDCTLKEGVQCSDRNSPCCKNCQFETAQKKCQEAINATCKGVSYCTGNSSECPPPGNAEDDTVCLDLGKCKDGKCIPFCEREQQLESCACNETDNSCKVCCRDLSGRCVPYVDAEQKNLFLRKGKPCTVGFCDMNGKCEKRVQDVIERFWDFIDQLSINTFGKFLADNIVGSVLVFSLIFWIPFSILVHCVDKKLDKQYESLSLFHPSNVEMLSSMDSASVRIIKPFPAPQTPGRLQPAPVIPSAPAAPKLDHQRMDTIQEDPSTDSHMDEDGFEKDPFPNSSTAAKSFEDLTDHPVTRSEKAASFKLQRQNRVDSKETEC
observation type: IC50

line notation: COc1cccc(CNC(=O)c2nc3ccc(F)c(OCCc4ccc(C(=O)O)cc4)c3c(=O)[nH]2)c1
measurement target: Disintegrin and metalloproteinase domain-containing protein 17 (Homo sapiens)
measured: > 10 µM

====

system: Liver microsome; experiment: Metabolic stability in human liver microsomes; format: ADME
observation type: Stability (µL/min/mg)

line notation: COc1cccc(CNC(=O)c2nc3ccc(F)c(OCCc4ccc(C(=O)[O-])cc4)c3c(=O)[nH]2)c1.[Na+]
observation type: Stability
unit tag: µL/min/mg
measured: 3

====

system: Macaca fascicularis; test: Oral bioavailability in monkey at 1 mg/kg; details: cynomolgus monkey, in vivo

line notation: COc1cccc(CNC(=O)c2nc3ccc(F)c(OCCc4ccc(C(=O)[O-])cc4)c3c(=O)[nH]2)c1.[Na+]
measurement target: Macaca fascicularis
bioavailability [%]: 45

====

assay: Apparent permeability in human Caco2 cells; assay type: ADME, cell-based; settings: Caco-2

line notation: COc1cccc(CNC(=O)c2nc3ccc(F)c(OCCc4ccc(C(=O)O)cc4)c3c(=O)[nH]2)c1
unit tag: ×10⁻⁶ cm/s
Papp: 4.77

====

assay: AUC in guinea pig at 3 mg/kg, po; format: ADME, organism-based, Cavia porcellus; parameters: dose 3 mg/kg, route oral; settings: plasma

line notation: COc1cccc(CNC(=O)c2nc3ccc(F)c(OCCc4ccc(C(=O)[O-])cc4)c3c(=O)[nH]2)c1.[Na+]
AUC: 1410 ng·h/mL
